Where these numbers come from: paper PMC9090415

system tested: P. falciparum apicoplast DNA polymerase (Pf-apPOL) (Plasmodium falciparum, UniProt Q8ILY1)
Sequence (Q8ILY1 entry or part of it): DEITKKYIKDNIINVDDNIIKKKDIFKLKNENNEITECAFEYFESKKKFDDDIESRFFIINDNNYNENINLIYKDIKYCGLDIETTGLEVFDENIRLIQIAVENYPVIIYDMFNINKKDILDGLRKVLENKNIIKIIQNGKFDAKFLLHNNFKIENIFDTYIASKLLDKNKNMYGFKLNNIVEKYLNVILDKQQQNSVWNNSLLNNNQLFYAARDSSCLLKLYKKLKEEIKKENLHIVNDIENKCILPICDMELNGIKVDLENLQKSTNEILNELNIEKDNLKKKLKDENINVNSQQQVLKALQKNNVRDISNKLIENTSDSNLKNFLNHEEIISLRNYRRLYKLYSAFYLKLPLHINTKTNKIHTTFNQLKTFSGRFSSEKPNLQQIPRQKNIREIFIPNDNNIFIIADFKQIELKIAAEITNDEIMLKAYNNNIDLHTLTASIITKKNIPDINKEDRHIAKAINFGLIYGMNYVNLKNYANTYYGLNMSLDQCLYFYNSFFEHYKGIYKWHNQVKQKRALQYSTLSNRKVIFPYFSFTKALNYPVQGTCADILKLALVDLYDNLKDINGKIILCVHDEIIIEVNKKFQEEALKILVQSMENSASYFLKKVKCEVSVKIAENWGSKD
test name: Fluorescence-based high-throughput DNA polymerase assay (molecular beacon), primary screen and dose-response
Assay type: biochemical
test settings: DRC-2; 5'; concentration 10
In this scheme, each record receives a class according to its % inhibition Apo pol 5'; the ranges are c1: < 30%; c2: ≥ 30% and < 40%; c3: ≥ 40%

[
  {
    "compound": "COc1ccc(NC(=O)Cn2ccc3c(=O)[nH]ccc32)cc1 [Molecule 13, COc1ccc(cc1)NC(=O)Cn1ccc2c1cc[nH]c2=O]",
    "label": "c2"
  },
  {
    "compound": "CN(C)S(=O)(=O)Oc1ccc(-c2noc(-c3ccc(Oc4cc(Cl)cc(Cl)c4)o3)n2)cc1",
    "label": "c2"
  },
  {
    "compound": "Cc1ccc(NC(=O)C2CCN(C(=O)c3cc4ccsc4[nH]3)CC2)c(Br)c1",
    "label": "c3"
  },
  {
    "compound": "Cc1ccc(N2CCC(NC(=O)Cc3cccs3)C2=O)cc1C (stereo not shown)",
    "label": "c1"
  },
  {
    "compound": "COc1ccc(C)cc1NC(=O)Cn1ccc2c(=O)[nH]ccc21 [Molecule 15, COc1ccc(cc1NC(=O)Cn1ccc2c1cc[nH]c2=O)C]",
    "label": "c3"
  },
  {
    "compound": "CCCCC(=O)N1CCc2c(nc3cc(-c4ccccc4Cl)[nH]n3c2=O)C1",
    "label": "c1"
  },
  {
    "compound": "Cc1cc(C)cc(-n2nc3c(c2NC(=O)c2ccco2)CSC3)c1",
    "label": "c2"
  },
  {
    "compound": "Cc1ccc(NC(=O)Cn2ccc3c(=O)[nH]ccc32)cc1F [Molecule 48, O=C(Cn1ccc2c1cc[nH]c2=O)Nc1ccc(c(c1)F)C]",
    "label": "c1"
  },
  {
    "compound": "CCOc1cccc2cc(C(=O)Nc3nnc(-c4ccno4)o3)oc12",
    "label": "c3"
  },
  {
    "compound": "O=C1c2ccccc2C(=O)N1Oc1ccc([N+](=O)[O-])c([N+](=O)[O-])c1",
    "label": "c1"
  },
  {
    "compound": "O=C1C(=Cc2ccncc2)Oc2c1ccc1c2CN(Cc2ccc3c(c2)OCO3)CO1",
    "label": "c2"
  },
  {
    "compound": "Cc1ccccc1C(=O)N1CCc2c(nc3cc(-c4ccccc4)[nH]n3c2=O)C1",
    "label": "c1"
  },
  {
    "compound": "O=C1N=C(Nc2cccc(Cl)c2Cl)S/C1=C\\c1ccco1 [Molecule 3, O=C1N=C(S/C/1=C\\c1ccco1)Nc1cccc(c1Cl)Cl]",
    "label": "c3"
  },
  {
    "compound": "COc1ccc(-c2cc(=O)c3cc(O)ccc3o2)cc1OC",
    "label": "c1"
  },
  {
    "compound": "O=c1cc(-c2ccccc2Cl)oc2c(NS(=O)(=O)c3cc(Cl)cc(Cl)c3O)ccc(O)c12",
    "label": "c2"
  },
  {
    "compound": "O=C1CCCC2=C1C(c1ccccn1)C1=C(CCCC1=O)O2",
    "label": "c1"
  },
  {
    "compound": "O=c1cc(-c2ccccc2)oc2c(O)c(O)ccc12",
    "label": "c1"
  },
  {
    "compound": "COc1ccc(NC(=O)Cn2ccc3c(=O)[nH]ccc32)cc1Cl [Molecule 10, COc1ccc(cc1Cl)NC(=O)Cn1ccc2c1cc[nH]c2=O]",
    "label": "c3"
  },
  {
    "compound": "Cc1cccc(-c2noc(C(=O)NNC(=O)C(Cl)(Cl)Cl)n2)c1",
    "label": "c1"
  },
  {
    "compound": "Cc1ccc2c(C(=O)NCCc3cccnc3)cc(NC(=O)C(C)C)cc2n1",
    "label": "c1"
  },
  {
    "compound": "COc1ccc(CNC(=O)Cn2nc3c(c2NC(=O)Cc2cccs2)CSC3)cc1",
    "label": "c1"
  },
  {
    "compound": "COc1ccc(C=C2Oc3c(ccc4c3CN(c3ccc5c(c3)OCO5)CO4)C2=O)cc1OC",
    "label": "c1"
  },
  {
    "compound": "Cc1ccc(CCNC(=O)c2cnn3c(O)c(Cc4ccccc4F)c(C)nc23)cc1",
    "label": "c1"
  },
  {
    "compound": "O=C(O)c1ccc(-c2nc3cc(-c4ccc5nc(-c6ccc(C(=O)O)cc6)[nH]c5c4)ccc3[nH]2)cc1",
    "label": "c2"
  },
  {
    "compound": "Cc1ccc(-n2nnc(C(=O)O)c2-c2ccccn2)c(F)c1",
    "label": "c2"
  },
  {
    "compound": "O=C1CSC2=NC3=C(CCc4ccccc43)C(c3cccs3)N12 (stereo not shown)",
    "label": "c1"
  }
]
